Recorded values, source a melting point compilation (Tetko et al.; mined from patent text by program, amines drawn as free bases though some values may be those of a salt).

assay-metric: melting point

# example entries with known answers
record-smiles	measured
COc1cccc(CC(=S)SCC(=O)O)c1	93 to 95 °C
C=C(C)CCOc1c(-c2ccc(S(C)(=O)=O)cc2)cnn(-c2ccc(F)cc2)c1=O	109 to 111 °C
CN1CCCc2cc(C=C3SC(=O)NC3=O)ccc21	254 to 257 °C
CC(=O)Nc1ccc2c(c1)C(=O)N(CCO[N+](=O)[O-])CO2	141 to 142 °C

Then this molecule:
// melting point value for Nc1ccc(N2CCOCC2)c(C(=O)O)c1 : 307 to 308 °C

----------
assay-metric: melting point

# example entries with known answers
molecule	assay-metric	measured
CC(=S)N(C)Cc1ccc(F)cc1	melting point	99 to 104 °C
COc1ccc(/C=C/C2=NS(=O)(=O)c3ccccc3N2)cc1OC	melting point	276 to 279 °C
N#CC(NC(=O)c1ccccc1)n1cccn1 (stereo not given)	melting point	169 to 174 °C

// melting point value for NS(=O)(=O)c1ccc(C2=C(c3ccc(F)c(Cl)c3)CCC2)cc1 : 150 to 152 °C

// melting point value for OCC(O)c1cccc(OCc2ccc3ccccc3c2)c1 (stereo not given) : 121 to 122 °C

----------
Reported values of melting point for individual entries

# example entries with known answers
compound	measured
CC(=O)N1CCc2ccc(SCc3ccccc3)c([N+](=O)[O-])c2C1	94 to 95 °C
CCOC(=O)CN1CCN(c2cc3c(cc2Cl)c(=O)c(C(=O)O)cn3CC)CC1	230 to 232 °C
CCCn1cc2c(C3C(=O)Nc4ccc(C#N)cc43)nc(NCc3ccncc3)nc2n1 (configuration not stated)	299 to 302 °C

// melting point value for Cc1cc(C)cc(/C=C/c2ccc(O)cc2)c1 : 142 °C

// melting point value for Cc1ccsc1C(Cc1ccccc1O)N(C)C=O (configuration not stated) : 142 to 144 °C

// melting point value for COCCNC(=O)c1cccc(-c2ccc(F)c3cc(Cc4cccc(C(F)(F)F)c4)sc23)c1 : 123 to 124 °C

// melting point value for CSc1nc(-c2ccc(F)cc2)nc(-c2ccccn2)n1 : 158 °C

// melting point value for O=C(CCCN1C(=O)c2ccccc2C1=O)N1CCCC2=C1CCc1cc(Cl)ccc12 : 182 to 183 °C

// melting point value for COc1ccc(NC(C)(C)C(=O)O)c([N+](=O)[O-])c1 : 119 to 121 °C

----------
Reported values of melting point for individual entries

compound	measured
Cc1cc(C)cc(-c2cnn3c(-c4cccc(C#N)c4)ccnc23)c1	147 °C
CC(C)(C)c1cc(C(C)(C)C)n(Cc2ccc(CNc3ccc(CCC(=O)O)c(F)c3)cc2)n1	146 to 147 °C
CCOC(C)(C)C(=O)O[C@H]1C[C@H](O)C=C2C=C[C@H](C)[C@H](CC[C@@H]3C[C@@H](O)CC(=O)O3)[C@H]21	132 °C
Cc1cccc2c1CCN(C1CN3CCC1CC3)C2=O (racemic)	> 270 °C
CCOC(=O)C(CC#Cc1ccccc1)(NC(C)=O)C(=O)OCC	94 to 96.5 °C

Then this compound:
// melting point value for Fc1ccc(C#CC2=CCN(Cc3coc4ccccc34)CC2)cc1 : 79 to 80 °C

----------
Reported values of melting point for individual entries

# example entries with known answers
compound	melting point
Cc1ccc(S(=O)(=O)n2ccc3c(C(=O)c4ccccc4O)cccc32)cc1	110 °C
COC(=O)c1cccc2nc(OCC(F)(F)F)n(Cc3ccc(-c4ccccc4-c4nnn[nH]4)cc3)c12	210 to 212 °C
CC(C)(CNc1ccnc2cc(Cl)ccc12)NCc1cccc(C(F)(F)F)c1	156 to 157 °C
COC(=O)Nc1ccc(C2=NNC(=O)CC2C)cc1 (configuration not stated)	228 to 229 °C
O=c1c(-c2cccc(C(F)(F)F)c2)c[nH]n1-c1ccc(F)cc1	171 to 173 °C

// melting point value for CO[C@H]1CCN(C(=O)c2cc(-c3ccccc3)c(=O)n3c2-c2sccc2C3)C1 : 159 to 162 °C

// melting point value for OCc1c(C(F)(F)F)[nH]c2ccccc12 : 106 °C

----------
assay-metric: melting point

# example entries with known answers
molecule	assay-metric	measured
C[C@H](NC(=O)C[C@H](O)C[C@H](O)/C=C/c1c(C2CC2)nc2ccccc2c1-c1ccc(F)cc1)c1ccccc1	melting point	57 to 76 °C
CC#Cc1ncn2c1CN(C)C(=O)c1c(Cl)cccc1-2	melting point	243 to 244 °C
CCCCCCCCCCCCn1nnc(C(C(=O)Nc2c(C(C)C)cccc2C(C)C)N2CCSCC2)n1 (centres undefined)	melting point	97 to 98 °C

// melting point value for COC(=O)COc1cc2c(c(Cl)c1Cl)C(=O)C(CC#C[Si](C)(C)C)(c1ccccc1)C2 (centres undefined) : 126 to 127 °C

----------
assay-metric: melting point

# example entries with known answers
compound	melting point
COc1cccc(CN2CCC(n3c(C)c(-c4ccccc4)[nH]c3=O)CC2)c1	227 to 228 °C
O=C(CN1CCOCC1)Nc1ccc2c(c1)Cc1cn[nH]c1-2	141 to 148 °C
O=C(COC(=O)c1nocc1Br)NCCO[N+](=O)[O-]	98 to 99 °C
CCCCCCCCCCCCCCCCCCOc1cccc(C(=O)O)c1OCCCOc1ccc(OCc2ccccc2)cc1	75 to 76 °C

// melting point value for CCOC(OCC)N1C(=O)C(c2ncnc3cc(OCCOC)c(OC)cc23)c2cc(F)ccc21 (stereo not given) : 245 to 255 °C

// melting point value for Cc1cn(C(C)(C)C(=O)N(C)C)nc1-c1ccc(Cl)c(Cl)c1 : 142 °C

// melting point value for Cc1cc(COc2ccc(C(=O)NC[C@@H](C(=O)NO)N3CCN(S(C)(=O)=O)CC3)cc2)c2ccccc2n1 : 175 °C

// melting point value for CCC(Oc1c(F)ccc(C)c1F)C1=NCCN1 (stereo not given) : 70.5 to 71 °C

// melting point value for CC1(C)C2CCC1(C)C(O)(c1ccccc1)C2 (stereo not given) : 41 to 42 °C

// melting point value for CCOCCOCCOc1ccc(C(=O)CN(Cc2ccccc2)Cc2ccccc2)cc1C(N)=O : 91.5 to 92.5 °C

// melting point value for CCc1nn(CCC(N)=O)c(CC)c1Cc1cc(Cl)cc(Cl)c1 : 140 to 142 °C

----------
Reported values of melting point for individual entries

# example entries with known answers
molecule	assay-metric	measured
CC(CS)C(=O)N1CC(Oc2ccc(CC3Nc4cc(Cl)c(S(N)(=O)=O)cc4S(=O)(=O)N3C)cc2)CC1C(=O)O (stereo unspecified)	melting point	192 to 197 °C
CCCCNCc1nc(-c2ccc3c(c2)Nc2ccccc2S3)cs1	melting point	139 to 141 °C

Then this molecule:
// melting point value for CSCCC(=O)N(C)c1sc(-c2cncc(F)c2)nc1C#N : 97 to 98 °C

----------
assay-metric: melting point

# example entries with known answers
record-smiles	melting point
CC(C)c1nn(-c2ccc(C(F)(F)F)cn2)cc1CCCOc1nn(C2CCCCC2)cc1CC(=O)O	116 to 117 °C
Cc1oc(-c2ccccc2)nc1COc1ccc(C=C2SC(=O)NC2=O)cn1	225 to 226 °C
CCOC(=O)Cc1sc(Sc2nccc(C)c2C(=O)O)nc1C	169 to 171 °C

Then this molecule:
// melting point value for O=c1nc(-c2ccccn2)sc2ccc(OCCCCCCO)cc12 : 136 to 137 °C

----------
Reported values of melting point for individual entries

# example entries with known answers
compound	assay-metric	measured
COc1ccc(CC#N)cc1S(N)(=O)=O	melting point	173 to 177 °C
CCCOc1ccc(-c2scc(-c3ccccc3Cl)c2CC(=O)NC(=N)NCCCO)c(C)c1	melting point	103 to 106 °C
C#Cc1cccc(C2=CC(=O)NC2=O)c1	melting point	129 to 131 °C
O=C1c2nc3ccccn3c2C(=O)c2cccc(F)c21	melting point	> 260 °C
CN1Cc2c(C(=O)OC3CCCC3)ncn2-c2cccc(Cl)c2C1=O	melting point	162 to 163 °C
COC(=O)CCCc1cc2cc(Cl)ccc2n1S(=O)(=O)c1ccc2c(c1)CN(C(C)=O)CC2	melting point	50 to 52 °C
Fc1ccc(-c2cc(-c3cccs3)[nH]n2)cc1	melting point	181 to 184 °C
Cn1c(C(F)(F)F)cc(=O)n(-c2cc(OCOc3ccc(Cl)cc3)c(Cl)cc2F)c1=O	melting point	120 to 122 °C

Then this compound:
// melting point value for COc1ccc(OCC(O)CCCl)cc1 (stereo not drawn) : 65 to 68 °C

----------
Reported values of melting point for individual entries

molecule	melting point
Cc1cc([N+](=O)[O-])ccc1NC1CC1	35 to 37 °C
CC(C)(C)C(=O)C(Cl)C(=O)Nc1ccccc1 (centres undefined)	154 °C
Cc1nc(-c2ccc(C(F)(F)F)cc2)sc1C(=O)NCc1ccc(OC(C)(C)C(=O)O)cc1	130 to 131 °C

// melting point value for CC(C)(C)c1cc2c(s1)Nc1ccccc1N=C2N1CCN[C@@H](CCc2ccccc2)C1 : 93 to 96 °C

// melting point value for CC(=O)OC1CSC(Oc2cncc(-c3ccc(C(F)(F)F)cc3)c2)C(OC(C)=O)C1OC(C)=O (centres undefined) : 163 to 164 °C

// melting point value for N#CC(c1ccccc1)c1nc(-c2ccncc2)cs1 (centres undefined) : 110 to 111 °C

// melting point value for O=C1CCc2cc(CN3CCN(C(=O)c4ccc(Oc5ccc(NC(=O)c6ccc(C(F)(F)F)cc6)cn5)cc4)CC3)ccc2N1 : 250 to 252 °C

// melting point value for CC(=O)OC1(C(C)=O)C(C)CC2C3CC(C)C4=CC(=O)C=CC4(C)C3(F)C(O)CC21C (centres undefined) : 291 to 293 °C
